Biological target: farnesyl protein transferase
Assay: FPT IC50 (inhibition of farnesyl protein transferase, in vitro enzyme assay)
Type: biochemical
Conditions: Table 2
pIC50: −log10 of the molar value.
Value Type: pIC50

compound=N#CN1CCC(CC(=O)N2CCC([C@H]3c4ncc(Br)cc4CCc4cc(Cl)cc(Br)c43)CC2)CC1 value_type=pIC50 observed=8.64

a: N=C(Oc1ccccc1)N1CCC(CC(=O)N2CCC(C3c4ccc(Cl)c(Br)c4CCc4cc(Br)cnc43)CC2)CC1 (stereo not drawn)
b: N=C(Oc1ccccc1)N1CCC(CC(=O)N2CCC([C@H]3c4ncc(Br)cc4CCc4cc(Cl)cc(Br)c43)CC2)CC1
c: NC(=O)NC(=O)N=C(Oc1ccccc1)N1CCC(CC(=O)N2CCN(C3c4ccc(Cl)cc4CCc4cc(Br)cnc43)CC2)CC1 (stereo not drawn)
d: N=C(NC(=O)NC(N)=O)N1CCC(CC(=O)N2CCN(C3c4ccc(Cl)cc4CCc4cc(Br)cnc43)CC2)CC1 (stereo not drawn)
List from greatest to least pIC50. Respond with the label ranking, as requested.
b, a, d, c

* * *

Tested on: Human tumor cells
Assay: Soft Agar Assay (anchorage-independent growth)
Type: cell-based
Settings: Table 4; colonies after 10-16 days at 37° C.
Value Type: IC50 (nM)

P: O=C1NC[C@@H](C(=O)N2CCC(CC(=O)N3CCC([C@H]4c5ncc(Br)cc5CCc5cc(Cl)cc(Br)c54)CC3)CC2)N1 [Compound 15.0-B]
Q: CC(=O)N1CCC(CC(=O)N2CCC([C@H]3c4ncc(Br)cc4CCc4cc(Cl)cc(Br)c43)CC2)CC1 [Compound 36.0-B]
Lab log: flag the item ( P or Q ) with the smaller IC50 figure. Could you answer with the label of the item you picked?
Q

* * *

Biological target: farnesyl protein transferase (K-ras) (Homo sapiens, UniProt P49354+P49356)
Assay: FPT IC50 (K-ras), in vitro enzyme assay
Format: biochemical
pIC50: −log10 of the molar value.
Value Type: pIC50

Consider the worked cases shown below.
structure=N#CN1CCC(CC(=O)N2CCC([C@H]3c4ncc(Br)cc4CCc4cc(Cl)cc(Br)c43)CC2)CC1 value_type=pIC50 observed=7.77
structure=O=CN1CCC(CC(=O)N2CCC([C@H]3c4ncc(Br)cc4CCc4cc(Cl)cc(Br)c43)CC2)CC1 value_type=pIC50 observed=7.80

I: CC(=O)OC[C@H]1O[C@@H](NC(=S)N2CCC(CC(=O)N3CCC([C@H]4c5ncc(Br)cc5CCc5cc(Cl)cc(Br)c54)CC3)CC2)[C@H](OC(C)=O)[C@@H](OC(C)=O)[C@@H]1OC(C)=O
II: N=C(Oc1ccccc1)N1CCC(CC(=O)N2CCC([C@H]3c4ncc(Br)cc4CCc4cc(Cl)cc(Br)c43)CC2)CC1
Would you let me know which has the greater pIC50 value, I or II ? Write down the label attached to your selection.
I
(I: 7.54, II: 7.34)

* * *

Molecular target: geranylgeranyl protein transferase (Rattus norvegicus, UniProt P53610+Q04631)
Experiment: GGPT IC50 (inhibition of geranylgeranyl protein transferase, in vitro enzyme assay)
Experimental: FPT IC50 (inhibition of farnesyl protein transferase, in vitro enzyme assay), GGPT IC50 (inhibition of geranylgeranyl protein transferase, in vitro enzyme assay) and COS Cell IC50 (Cell-Based Assay) were determined following the assay procedures described in WO 95/10516, published Apr. 20, 1995. Cell Mat Assay, and anti-tumor activity (in vivo anti-tumor studies) could be determined by the assay procedures described in WO 95/10516. […]
Value Type: IC50 (µM)
Expressed in µM, but write only the number.

# query: IC50 of entry N=C(NCc1cccnc1)N1CCC(CC(=O)N2CCC(C3c4ccc(Cl)c(Br)c4CCc4cc(Br)cnc43)CC2)CC1 (stereo not shown)
7.5
